The measurements presented in this section are drawn from patent US20240287052A1.

Molecular target: IL33 and ST2 binding (Homo sapiens);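 further: plate ELISA with coated Flag-tagged human IL-33 and His-tagged human ST2, bound ST2 detected by anti-His HRP and TMB absorbance at 450 nm, 2 h compound incubation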
Sequence (O95760 112-270 limits assumed): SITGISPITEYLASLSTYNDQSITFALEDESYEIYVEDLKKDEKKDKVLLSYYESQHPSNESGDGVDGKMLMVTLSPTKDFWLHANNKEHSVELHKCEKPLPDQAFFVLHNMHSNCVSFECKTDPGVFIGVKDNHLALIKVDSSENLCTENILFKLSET
Details: 100 µM
Below, each entry is listed with its recorded inhibition.

smilesStructure	inhibition, %
CCN(CC)CCNC(=O)c1nc(-c2ccc(C(C)(C)C)cc2)oc1-c1ccccc1	29
CN1CCN(CCNC(=O)c2nc(-c3cccc(C(F)(F)F)c3)oc2-c2ccccc2)CC1	0
CN(C)CCNC(=O)c1nc(-c2ccc(C(C)(C)C)cc2)oc1-c1ccccc1	14
CCN(CC)CCNC(=O)c1nc(-c2ccc(C(C)(C)C)cc2)oc1-c1ccccc1[N+](=O)[O-]	37
CC(=O)c1ccc(NC(=O)c2nc(-c3ccc(C(F)(F)F)cc3)oc2-c2ccccc2[N+](=O)[O-])cc1	4
COc1ccc(-c2nc(C(=O)NCCN(C)C)c(-c3ccccc3)o2)cc1	-22
CCOC(=O)c1nc(-c2ccc(C(F)(F)F)cc2)oc1-c1ccc(NC(C)=O)cc1	-9
CN(C)CCN1CCN(C(=O)c2nc(-c3ccc(F)cc3)oc2-c2ccccc2[N+](=O)[O-])CC1	43
